- study.system: T1, CRBN, Q96SW2;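 note: pooled lentiviral library of zinc finger degron-EGFP fusions in mCherry-positive Jurkat cells, FACS-sorted after compound exposure, with degron abundance counted by next-generation sequencing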
- T1 chain: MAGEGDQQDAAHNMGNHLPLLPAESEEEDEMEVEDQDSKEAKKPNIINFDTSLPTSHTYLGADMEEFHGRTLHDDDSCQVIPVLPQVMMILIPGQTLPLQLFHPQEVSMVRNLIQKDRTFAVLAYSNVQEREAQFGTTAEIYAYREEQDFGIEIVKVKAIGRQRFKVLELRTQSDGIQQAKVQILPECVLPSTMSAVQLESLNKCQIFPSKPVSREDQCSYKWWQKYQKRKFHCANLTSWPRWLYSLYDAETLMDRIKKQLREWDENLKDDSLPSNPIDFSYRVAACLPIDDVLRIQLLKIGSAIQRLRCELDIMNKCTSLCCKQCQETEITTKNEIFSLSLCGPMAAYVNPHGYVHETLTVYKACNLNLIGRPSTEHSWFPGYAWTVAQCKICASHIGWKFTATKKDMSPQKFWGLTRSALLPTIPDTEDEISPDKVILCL
- method.summary: log2 fold change of degron read counts, EGFP-low vs EGFP+ sorted cells (limma voom), compound-induced degradation; higher = more compound-induced degradation of the degron-EGFP fusion; degrons are variants of IKZF1/3 zinc finger 2; compound dose not given here
- condition: Jurkat; 18 h; compound: compound 19 (5-tert-butyl-thalidomide)
Whole data set: some 8,300 sequences, median “log2 fold change of degron read counts, EGFP-low vs EGFP+ sorted cells (limma voom), compound-induced degradation” near -1.1, cut for the highest 2% near 3.2. This is one part of a sample in which the highest values are shown more often than they occur.
property.label: log2 fold change of degron read counts
Give only the figure.

- sequence.record: "FCCNVCGASFTQKGNLLRHIKL [46F_47C_49N_50V_52G_53A_54S_55F_67L_, Q9UKT9]"
  log2 fold change of degron read counts: 0.743
- sequence.record: "FQCPICGASFTQKGNLLRHIKL [46F_47Q_49P_50I_52G_53A_54S_55F_67L_, Q9UKT9]"
  log2 fold change of degron read counts: 2.55

Reported log2 fold change of degron read counts of FQCEVCGADFTQKGNLLRHIKL [46F_47Q_49E_50V_52G_53A_54D_55F_67L_, Q9UKT9] : -0.53

Record summary for FQCDICGASFTQKGNLLRHIKL [46F_47Q_49D_50I_52G_53A_54S_55F_67L_, Q9UKT9] : reported log2 fold change of degron read counts = 1.07

Measured log2 fold change of degron read counts, FCCDICGASFTQKGNLLRHIKL [46F_47C_49D_50I_52G_53A_54S_55F_67L_, Q9UKT9] : 2.32

Record summary for FCCSVCGHLFTQKGNLLRHIKL [46F_47C_49S_50V_52G_53H_54L_55F_67L_, Q9UKT9] : reported log2 fold change of degron read counts = -2.25

Just so you know, measured log2 fold change of degron read counts for FACNVCGASFTQKGNLLRHIKL [46F_47A_49N_50V_52G_53A_54S_55F_67L_, Q9UKT9] came out at 1.32

# log2 fold change of degron read counts (sequence: FRCEVCGASFTQKGNLLRHIKL [46F_47R_49E_50V_52G_53A_54S_55F_67L_, Q9UKT9] ) is 2.07

meta.source: the supplement of paper PMC12645437
